Sourced from patent US10899747B2

Tested on: IL-2
Assay: PHA-IL2 (cell activation and cytokine analysis)
Type: cell-based
Conditions: 50% inhibition concentration class
Source text: Cells to be tested may include, but are not limited to, a) Jurkat (a transformed human T cell leukemia), b) whole blood isolated from human or rodent sources, c) peripheral blood mononuclear cells (PBMC) freshly isolated from human or rodent whole blood, or d) purified fractions of PBMC (e.g., CD4 T cells). […] Cytokines to be analyzed may include IL-2, IL-4, IL-10, IL-17, IL-22, IFNγ, and/or TNFα. […]

{"columns": ["COMPOUND", "STUDY_TARGET", "IC50"],
 "data": [
  ["CCOc1ccc(CCC2CCN(C(=O)COc3ccccc3-c3ccc(C(=O)c4ccccc4)cc3)CC2)cc1", "IL-2", "< 1 µM"],
  ["O=C(COc1ccccc1-c1ccc2[nH]cnc2c1)N1CCC(CCc2cccc3ccccc23)CC1", "IL-2", "< 1 µM"],
  ["N#CCc1ccc(-c2ccccc2OCC(=O)N2CCC(CCc3ccc4c(c3)OCO4)CC2)cc1", "IL-2", "< 1 µM"],
  ["N#Cc1ccc(-c2ccccc2OCC(=O)N2CCC(CCc3cccc(OC(F)F)c3)CC2)cc1", "IL-2", "< 1 µM"],
  ["O=C(CCc1ccccc1-c1ccccc1)N1CCC(CCc2cc(F)cc(F)c2)CC1", "IL-2", "10 to 50 µM"],
  ["COc1cccc(CCC2CCN(C(=O)CSc3ccccc3-c3ccccc3)CC2)c1", "IL-2", "1 to 10 µM"],
  ["O=C(COc1ccccc1-c1ccc(Cl)nc1)N1CCC(CCc2ccc3c(c2)OCCO3)CC1", "IL-2", "1 to 10 µM"],
  ["O=C(NCCO)c1ccc(-c2ccccc2OCC(=O)N2CCC(CCc3ccc4c(c3)OCO4)CC2)cc1", "IL-2", "10 to 50 µM"],
  ["CCOc1ccc(CCC2CCN(C(=O)COc3ccccc3-c3ccc(F)cc3O)CC2)cc1", "IL-2", "< 1 µM"],
  ["O=C(COc1ccccc1-c1ccc(F)nc1)N1CCC(CCc2ccc3c(c2)OCO3)CC1", "IL-2", "< 1 µM"],
  ["O=C(COc1ccccc1-c1ccccc1)N1CCC(CCc2ccc(O)cc2)CC1", "IL-2", "< 1 µM"],
  ["Nc1ccc(-c2ccccc2OCC(=O)N2CCC(CCc3ccc4c(c3)OCO4)CC2)cc1", "IL-2", "10 to 50 µM"],
  ["O=C(C[S+]([O-])c1ccccc1-c1ccccc1)N1CCC(CCc2ccccc2)CC1 (stereo not shown)", "IL-2", "10 to 50 µM"],
  ["O=C(COc1ccccc1-c1cccc(OC(F)(F)F)c1)N1CCC(CCc2ccc3c(c2)OCO3)CC1", "IL-2", "1 to 10 µM"],
  ["COc1cccc(CCC2CCN(C(=O)COc3cccnc3-c3ccc4[nH]ncc4c3)CC2)c1", "IL-2", "1 to 10 µM"],
  ["NC(=O)c1ccc(OCC(=O)N2CCC(CCc3ccccc3)CC2)c(-c2ccc(F)cc2O)c1", "IL-2", "< 1 µM"]
]}
